studySystem: T1, human MET-Fc (R&D Systems) (human, UniProt P08581 25-932)
T1 construct: extracellular domain; bought chimeric protein; also called hMET; not shown: Fc portion of human IgG1
T1 sequence (P08581 25-932): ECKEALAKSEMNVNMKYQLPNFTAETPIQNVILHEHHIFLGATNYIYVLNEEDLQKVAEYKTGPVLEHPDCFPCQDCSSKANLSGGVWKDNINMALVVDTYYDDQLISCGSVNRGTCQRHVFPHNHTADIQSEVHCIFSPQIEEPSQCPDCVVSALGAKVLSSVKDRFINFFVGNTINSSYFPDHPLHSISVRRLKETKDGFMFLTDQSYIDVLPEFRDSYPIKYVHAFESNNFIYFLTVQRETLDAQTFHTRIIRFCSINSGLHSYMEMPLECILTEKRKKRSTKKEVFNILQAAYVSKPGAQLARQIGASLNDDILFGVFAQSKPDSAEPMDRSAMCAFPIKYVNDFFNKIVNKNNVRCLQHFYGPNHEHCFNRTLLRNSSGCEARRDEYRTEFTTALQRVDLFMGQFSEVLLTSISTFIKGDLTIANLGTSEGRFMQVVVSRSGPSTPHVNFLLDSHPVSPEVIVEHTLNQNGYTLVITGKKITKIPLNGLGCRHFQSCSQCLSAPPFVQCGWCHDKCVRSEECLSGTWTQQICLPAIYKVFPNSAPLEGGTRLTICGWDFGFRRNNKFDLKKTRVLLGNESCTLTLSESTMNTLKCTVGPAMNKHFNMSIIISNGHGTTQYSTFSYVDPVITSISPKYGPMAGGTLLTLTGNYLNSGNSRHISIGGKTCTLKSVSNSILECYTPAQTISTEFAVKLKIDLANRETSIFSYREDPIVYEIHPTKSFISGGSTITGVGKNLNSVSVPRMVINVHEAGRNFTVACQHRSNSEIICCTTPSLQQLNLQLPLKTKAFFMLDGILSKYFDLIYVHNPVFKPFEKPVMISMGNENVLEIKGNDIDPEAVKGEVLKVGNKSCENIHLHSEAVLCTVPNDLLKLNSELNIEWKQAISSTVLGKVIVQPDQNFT
protocolText: competition ELISA, hMET-Fc in solid phase, competitor 0.3 nM biotinylated hHGF
reportedProperty: IMAX (%)
Respond numerically; units are % and should not be typed.

>  <binder>
76H10 chimeric llama-human IgG1 mAb (antibody, V domains shown, llama VH on human IgG1 CH1-CH2-CH3, llama VL on human lambda CL) VH: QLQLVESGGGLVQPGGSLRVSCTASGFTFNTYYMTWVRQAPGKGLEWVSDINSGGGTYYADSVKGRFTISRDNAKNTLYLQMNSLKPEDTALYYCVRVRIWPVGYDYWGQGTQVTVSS VL: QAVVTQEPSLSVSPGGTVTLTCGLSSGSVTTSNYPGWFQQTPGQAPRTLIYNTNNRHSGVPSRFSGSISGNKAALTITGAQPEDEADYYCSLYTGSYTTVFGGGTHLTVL

>  <reportedProperty>
IMAX

>  <endpointValue>
64.2

$$$$
>  <binder>
76G7 chimeric llama-human IgG1 mAb (antibody, V domains shown, llama VH on human IgG1 CH1-CH2-CH3, llama VL on human lambda CL) VH: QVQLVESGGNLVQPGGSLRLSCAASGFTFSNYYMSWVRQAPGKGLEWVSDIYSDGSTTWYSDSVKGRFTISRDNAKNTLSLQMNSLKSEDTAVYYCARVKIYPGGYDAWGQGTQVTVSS VL: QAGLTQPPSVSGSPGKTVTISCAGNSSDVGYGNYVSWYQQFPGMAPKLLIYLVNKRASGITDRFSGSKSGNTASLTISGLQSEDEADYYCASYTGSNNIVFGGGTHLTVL

>  <reportedProperty>
IMAX

>  <endpointValue>
69.4

$$$$
>  <binder>
71A3 chimeric llama-human IgG1 mAb (antibody, V domains shown, llama VH on human IgG1 CH1-CH2-CH3, llama VL on human lambda CL) VH: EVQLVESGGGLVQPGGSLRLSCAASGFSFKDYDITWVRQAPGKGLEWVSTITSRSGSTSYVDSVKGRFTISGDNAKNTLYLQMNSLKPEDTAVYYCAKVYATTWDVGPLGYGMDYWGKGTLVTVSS VL: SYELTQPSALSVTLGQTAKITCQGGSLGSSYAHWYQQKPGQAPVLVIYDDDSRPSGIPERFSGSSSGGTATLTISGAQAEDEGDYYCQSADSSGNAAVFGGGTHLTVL

>  <reportedProperty>
IMAX

>  <endpointValue>
93.4

$$$$
>  <binder>
71G3 chimeric llama-human IgG1 mAb (antibody, V domains shown, llama VH on human IgG1 CH1-CH2-CH3, llama VL on human lambda CL) VH: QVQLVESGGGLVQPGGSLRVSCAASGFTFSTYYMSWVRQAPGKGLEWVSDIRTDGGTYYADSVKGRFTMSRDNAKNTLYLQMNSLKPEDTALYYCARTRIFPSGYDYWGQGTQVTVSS VL: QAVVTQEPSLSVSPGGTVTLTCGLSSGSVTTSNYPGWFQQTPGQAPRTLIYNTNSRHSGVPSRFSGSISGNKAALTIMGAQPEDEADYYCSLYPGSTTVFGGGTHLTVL

>  <reportedProperty>
IMAX

>  <endpointValue>
63.2

$$$$

Okay, now this binder:
Find the recorded IMAX belonging to 71D4 chimeric llama-human IgG1 mAb (antibody, V domains shown, llama VH on human IgG1 CH1-CH2-CH3, llama VL on human lambda CL) VH: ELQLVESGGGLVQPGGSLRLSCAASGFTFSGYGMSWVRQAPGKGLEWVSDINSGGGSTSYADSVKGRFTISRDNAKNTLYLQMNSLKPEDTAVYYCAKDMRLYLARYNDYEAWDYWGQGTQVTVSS VL: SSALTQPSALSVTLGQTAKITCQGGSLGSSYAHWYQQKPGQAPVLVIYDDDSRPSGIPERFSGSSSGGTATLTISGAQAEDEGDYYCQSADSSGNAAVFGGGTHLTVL and report it.
95.6
